The reported numbers originate from PubChem BioAssay.

- Tested on: XIP peptide (Xip251-270)
- PROTOCOL SUMMARY: small-molecule binders of XIP peptide, primary screen, biochemical, small-molecule microarray, fluorescence 635/667 nm, 0.5 µg/mL protein (AID 1183)
- CONDITION NOTES: small-molecule microarray binding, fluorescence 635 nm; higher = more signal
Catalogue of composite z-score values
Give your answer as a number; write no unit.

COMPOUND	composite z-score
C=CCC(OC(C)=O)[C@@H]1[C@@H](N(Cc2ccc(-c3ccccc3)cc2)C(=O)Cc2ccc(OC)cc2)c2cc(OCCCO)ccc2N1C(=O)c1ccc2ccccc2c1 (some centres not stated)	-0.0698
COc1cc2c(cc1O)C(C)N(Cc1sc3ccccc3c1Cl)CC2 (configuration not stated)	0.547
O=C1NC(=O)C2C1C=CC(C(O)c1ccc(F)cc1)N2Nc1ccc(Cl)cc1Cl (configuration not stated)	-0.258
COCCOC(=O)N1C(=O)[C@@]2(c3cc(C#CC4=CCCCC4)ccc31)[C@H](c1ccc(O)cc1)N1[C@H](c3ccccc3)[C@H](c3ccccc3)OC(=O)[C@H]1[C@@H]2C(=O)N1CCc2cc(OC)c(OC)cc2C1	0.556
O=C1C2C=CC(C(O)c3ccccn3)N(Nc3ccc([N+](=O)[O-])cc3)C2C(=O)N1c1ccccc1 (configuration not stated)	0.0784
COCCOC(=O)N1C(=O)[C@@]2(c3cc(C#CCNC(N)=O)ccc31)[C@H](c1ccccc1OCCO)N1[C@H](c3ccccc3)[C@H](c3ccccc3)OC(=O)[C@H]1[C@@H]2C(=O)N1CCCCCCC1	0.824

Next item in the queue.
Task item: Supply composite z-score measured with XIP peptide (Xip251-270) for O=C1C2C=CC(C(O)C3CC=CCC3)N(Nc3ccc([N+](=O)[O-])cc3)C2C(=O)N1c1ccccc1 (configuration not stated) .
Reply: 0.545

###

- MEASURED TARGET: Neurogenic locus notch homolog protein 3 (Homo sapiens)
- PROTOCOL SUMMARY: NOTCH3 binders on small-molecule microarray, primary screen, biochemical, 635/667 nm fluorescence (AID 1096)
- CONDITION NOTES: NOTCH3 binding, 635 nm fluorescence, higher = more signal
MEASUREMENT LABEL: composite z-score
Give your answer as a number; write no unit.

Worked examples follow.
> print(dat)
                                   compound                           measured.target  measurement
1  CN1C(=O)C2C(C1=O)C1C=C(CCCO)C2C(C2CC2)N1C (stereo not drawn)  Neurogenic locus notch homolog protein 3 (Homo sapiens)       -0.312
2  [N-]=[N+]=NCc1ccccc1C[C@@]1(C(=O)NCCN2CCOCC2)N=C(c2ccc(OCCCO)cc2)O[C@@H]1c1ccccc1  Neurogenic locus notch homolog protein 3 (Homo sapiens)         0.65
3  COc1c(C)cc(-c2nc(-c3ccccc3)c3c(c2C)CO[Si]3(C(C)C)C(C)C)cc1C  Neurogenic locus notch homolog protein 3 (Homo sapiens)        0.566
4  CC(C)N1C(=O)[C@@]2(Cc3ccccc31)c1ccccc1C(=O)N(Cc1ccccc1C(F)(F)F)[C@H]2c1ccc(CO)cc1  Neurogenic locus notch homolog protein 3 (Homo sapiens)         0.99
5  CCOC(=O)C1=C[C@@H](C(C)(C)C)N(S(=O)(=O)c2ccc(C)cc2)[C@H]1c1ccc(OC)cc1  Neurogenic locus notch homolog protein 3 (Homo sapiens)         1.09
6  C=C(CCCC)C(=O)CC[C@H](OC(=O)c1ccccc1-c1ccccc1C(=O)O)c1cccc(OCCO)c1  Neurogenic locus notch homolog protein 3 (Homo sapiens)       -0.186

Task item: Identify measured composite z-score associated with `COc1ccc(C(=O)Nc2cccc(CN3C(=O)[C@]4(O[C@H](CC(=O)N(CCO)Cc5ccccc5)[C@@H]([Si](C)(C)c5ccc(OC)cc5)[C@@H]4C)c4ccccc43)c2)cc1`
Reply: 0.255

Task item: Identify measured composite z-score associated with `CC(C)N1C(=O)[C@@]2(Cc3ccccc31)c1ccccc1C(=O)N(Cc1ccccc1)[C@H]2c1ccc(CO)cc1`
Reply: -0.508

###

Catalogue of composite z-score values
- System: Lefty1
- PROTOCOL SUMMARY: Lefty1 binders on small-molecule microarrays, primary screen, biochemical, small-molecule microarray, 635/667 nm fluorescence (AID 1139)
- CONDITION NOTES: small-molecule microarray binding, fluorescence 635/667; higher = more signal
Give your answer as a number; write no unit.

MOLECULE	MEASURED TARGET	MEASUREMENT LABEL	MEASUREMENT
CCCCCN1CC=CC23O[C@@H]4/C=C\CCCOC(=O)C4[C@H]2C(=O)N(CCO)[C@@H]3C1=O (stereo not given in full)	Lefty1	composite z-score	0.126
Cc1ccc(N2C(=O)c3ccccc3[C@@H](C(=O)NCCN3CCOCC3)[C@@H]2c2ccc(CO)cc2)nc1	Lefty1	composite z-score	-0.702
COc1ccc([Si](C)(C)[C@@H]2[C@@H](CC(=O)N3CCC[C@H]3CO)O[C@]3(C(=O)N(Cc4cccc(N5C(=O)c6cccc7cccc5c67)c4)c4ccccc43)[C@H]2C)cc1	Lefty1	composite z-score	0.839
CC(C)C[C@@H]1NC(=O)[C@@H]2C[C@H](C(=O)NCCCCCNC(=O)CS)[C@H](c3ccc(O)cc3)N2C1=O	Lefty1	composite z-score	0.627
COC(=O)[C@@]1(Cc2ccc(F)cc2)[C@H]2c3cc(C(=O)N4CCCC4)n(CCSCCO)c3C[C@H]2CN1C(=O)c1ccccc1	Lefty1	composite z-score	-0.973
COc1ccc(C(O)C2C=CC3C(=O)N(C)C(=O)C3N2Nc2ccccc2)cc1 (stereo not given)	Lefty1	composite z-score	-0.341
C=CC[C@]1(C(=O)NCC(O)CO)N=C(c2ccc(OCCCO)cc2)O[C@H]1c1ccccc1CN=[N+]=[N-] (stereo not given in full)	Lefty1	composite z-score	-0.0497
C=CC[C@H](OC(=O)Nc1ccc(SC)cc1)c1ccc(O)c(F)c1	Lefty1	composite z-score	-0.173
COc1cc2c(cc1OC)CN(C(=O)[C@@H]1[C@H]3C(=O)O[C@H](c4ccccc4)[C@H](c4ccccc4)N3[C@H](c3ccc(O)cc3)[C@@]13C(=O)Nc1ccc(C#CC4=CCCCC4)cc13)CC2	Lefty1	composite z-score	1.46
COCCCNC(=O)[C@@]1(CCC(=O)OC(C)(C)C)N=C(c2ccc(OCCCO)cc2)O[C@H]1c1ccccc1	Lefty1	composite z-score	-0.568

Next item in the queue.
Task item: Identify measured composite z-score associated with `COC(=O)[C@H]1N=C(c2ccc(OCCCO)cc2)O[C@H]1c1ccccc1N=[N+]=[N-]`
Reply: -0.401

###

- PROTOCOL SUMMARY: basal HepG2 mitochondrial membrane potential changes, profiling panel, cell-based, JC-1 fluorescence, 24 h, 100 nL compound (AID 1167)
- CONDITION NOTES: higher = more signal
Catalogue of z-score values
Give your answer as a number; write no unit.

> print(dat)
                                   compound  measurement
1  C[N+](C)(C)CCCC[C@@H]1NC(=O)[C@H]2C[C@@H](C(=O)O)[C@@H](c3ccc(O)cc3)N2C1=O         1.93
2  C=CCNC(=O)[C@@H]1[C@H]2C(=O)O[C@H](c3ccccc3)[C@H](c3ccccc3)N2[C@H](c2ccc(OCCO)cc2)[C@@]12C(=O)N(C(=O)OCCOC)c1ccccc12         2.15
3  C=CCNC(=O)[C@H]1[C@@H]2C(=O)O[C@@H](c3ccccc3)[C@@H](c3ccccc3)N2[C@@H](c2ccc(O)cc2)[C@]12C(=O)Nc1ccccc12       -0.948

Task item: Identify measured z-score associated with CCOC(=O)C1=CCC(c2cccn2C(=O)OC(C)(C)C)N(S(=O)(=O)c2ccc(C)cc2)C1 (configuration not stated)
Reply: 2.22

###

- PROTOCOL SUMMARY: basal 3T3-L1 adipocyte mitochondrial potential changes, profiling panel, cell-based, JC-1 fluorescence, 3T3-L1 adipocytes, 24 h, 100 nL compound (AID 1168)
- CONDITION NOTES: JC-1 mitochondrial fluorescence, higher = more signal, called active from +8 up or from −8 down
Classification field: y = z-score at or over 0.2; n = z-score under 0.2.

Observe how each entry below is paired with its result.
COMPOUND	CAT
C=CC[C@]1(C(=O)NCC(O)CO)N=C(c2ccc(OCCCO)cc2)O[C@H]1c1ccccc1CN=[N+]=[N-] (stereo partly drawn)	n
COc1ccc(NN2C(C(O)c3ccc(F)cc3)C=CC3C(=O)N(C4CCCCC4)C(=O)C32)cc1 (stereo not drawn)	n
[N-]=[N+]=Nc1ccccc1C[C@]1(C(=O)N2CCCCC2)N=C(c2ccc(OCCCO)cc2)O[C@H]1c1ccccc1	y
COc1c(C)cc(-c2cc3c(c(CCc4ccccc4)n2)[Si](C(C)C)(C(C)C)O[C@H]3c2ccccc2)cc1C	n

Task item: Check the entry `COC(=O)C(CC#Cc1ccc2c(c1)[C@]1(C(=O)N2)[C@H](c2ccccc2OCCO)N2[C@H](c3ccccc3)[C@H](c3ccccc3)OC(=O)[C@H]2[C@@H]1C(=O)N1CCN(c2ncccn2)CC1)C(=O)OC` : does z-score equal or exceed 0.2?
Reply: n

Task item: Check the entry CCCCCN1CC=CC23O[C@@H]4/C=C\CCCOC(=O)C4[C@H]2C(=O)N(CCO)[C@@H]3C1=O (stereo partly drawn) : does z-score equal or exceed 0.2?
Reply: n

Task item: Check the entry `COC(=O)[C@@]1(Cc2ccc(F)cc2)[C@H]2c3cc(C(=O)N(C)C)n(Cc4cccc5ccccc45)c3C[C@H]2CN1C(=O)c1ccccc1` : does z-score equal or exceed 0.2?
Reply: n

Task item: Check the entry CC(C)c1ccc(NN2C(C(O)c3ccccc3)C=CC3C(=O)N(c4ccccc4)C(=O)C32)cc1 (stereo not drawn) : does z-score equal or exceed 0.2?
Reply: y

Task item: Check the entry `COCCCNC(=O)[C@@]1(Cc2ccccc2I)c2ccccc2C(=O)N(C2CCCCC2)[C@H]1c1ccc(CO)cc1` : does z-score equal or exceed 0.2?
Reply: n

Task item: Check the entry `C=CC[C@]12N=C(c3ccc(OCCCO)cc3)O[C@H]1c1ccccc1N(CCC)C2=O` : does z-score equal or exceed 0.2?
Reply: y

Task item: Check the entry `COc1ccc(CCNC(=O)[C@@]2(c3ccc([N+](=O)[O-])cc3)CC(=O)N(C3CCCCC3)[C@@H]2c2ccc(CO)cc2I)cc1` : does z-score equal or exceed 0.2?
Reply: y

Task item: Check the entry `COCCOC(=O)N1C(=O)[C@@]2(c3cc(C#CC4=CCCCC4)ccc31)[C@H](c1ccc(O)cc1)N1[C@H](c3ccccc3)[C@H](c3ccccc3)OC(=O)[C@H]1[C@@H]2C(=O)N1CCc2cc(OC)c(OC)cc2C1` : does z-score equal or exceed 0.2?
Reply: y

Task item: Check the entry `CO[C@H]1O[C@H](CO)[C@@H](OC(=O)Nc2cccc(F)c2)[C@H](OC(=O)c2cc3ccccc3[nH]2)[C@H]1OC(=O)c1cc2ccccc2[nH]1` : does z-score equal or exceed 0.2?
Reply: y

Task item: Check the entry `[N-]=[N+]=NCc1ccccc1[C@H]1OC(c2ccc(OCCCO)cc2)=N[C@@]1(CCS(=O)(=O)c1ccccc1)C(=O)NCCN1CCOCC1` : does z-score equal or exceed 0.2?
Reply: n

Task item: Check the entry C=C(C)C1CN([C@H](CO)c2ccccc2)C(=O)/C1=C\c1ccccc1 (stereo partly drawn) : does z-score equal or exceed 0.2?
Reply: n
